# conditions: in toluene, 293.15 K
measured.quantity: solubility (mole fraction)

**Q:** Please report the recorded solubility (mole fraction) for Clc1ncnc2[nH]ccc12 .
**A:** 0.00153

---

# conditions: in n-heptane, 313.15 K
measured.quantity: solubility (mole fraction)
Could you respond with only the numeric value?

**Q:** Please report the recorded solubility (mole fraction) for Clc1ncnc2[nH]ccc12 .
**A:** 0.00281

---

# conditions: in n-heptane, 308.15 K
measured.quantity: solubility (mole fraction)
Could you respond with only the numeric value?

**Q:** Please report the recorded solubility (mole fraction) for Clc1ncnc2[nH]ccc12 .
**A:** 0.00229

---

# conditions: in n-heptane, 298.15 K
measured.quantity: solubility (mole fraction)
Could you respond with only the numeric value?

**Q:** Please report the recorded solubility (mole fraction) for Clc1ncnc2[nH]ccc12 .
**A:** 0.0015

Source of measurements: BigSolDB 2.1
